All figures here come from PubChem BioAssay (NCI).

- Test system: K-562 leukemia
- MEASUREMENT PROTOCOL: NCI tumour cell line growth inhibition, 48 h
Measured TGI, listed per entry.
MEASUREMENT NAME: TGI (µM)

[[record]]
compound = "CCCCCCCCCCCCC(CCCCCCCCCCCC)OP(=O)(O)O"
qualifier_symbol = ">"
observed_measurement = 100

[[record]]
compound = "COc1ccc2nc(-c3cc4c([nH]c5ccccc54)c(-c4ccc(F)c(F)c4)n3)[nH]c2c1"
qualifier_symbol = "="
observed_measurement = 24.4

[[record]]
compound = "COc1ccccc1NC(=O)C(CC(C(=O)Nc1ccccc1OC)/C(C)=N/NC(=O)c1ccccc1O)/C(C)=N/NC(=O)c1ccccc1O (stereo not given)"
qualifier_symbol = ">"
observed_measurement = 100

[[record]]
compound = "COc1cc(N2CCC(N3CCN(C)CC3)CC2)ccc1Nc1ncc(Cl)c(Nc2ccccc2S(=O)(=O)C(C)C)n1"
qualifier_symbol = "="
observed_measurement = 5.41

[[record]]
compound = "CCN(CC)CCCNc1ncc(C)c2c1c1ccc3c(O)cccc3c1n2C"
qualifier_symbol = "="
observed_measurement = 4.64


---

- Test system: SF-295 CNS
- MEASUREMENT PROTOCOL: NCI tumour cell line growth inhibition, 48 h
Record T whenever TGI is at 30 µM or higher; record F when lower.

[[record]]
molecule = "N#CC1(C#N)C(c2ccccc2)C=CC(c2ccc([N+](=O)[O-])cc2)C1(C#N)C#N (centres undefined)"
category = "T"

[[record]]
molecule = "O=c1c(=[n+]2ccc(=C([O-])c3ccccc3)cc2)/c(=N/S(=O)(=O)c2ccccc2)c(=O)c2ccccc12"
category = "F"

[[record]]
molecule = "CCOC(=O)NC1CC2CCC1(OC)C=C2C (centres undefined)"
category = "T"

[[record]]
molecule = "O=C1COCCN1C(=O)c1ccccc1Cl"
category = "T"

[[record]]
molecule = "C/C(=C\\c1ccn(-c2ccc(N)cc2F)n1)[C@@H]1C[C@@H]2O[C@]2(C)CCC[C@H](C)[C@H](O)[C@@H](C)C(=O)C(C)(C)[C@@H](O)CC(=O)O1"
category = "T"

[[record]]
molecule = "Cn1c(=O)c2c(nc3n(C)c(=O)c4ccccc4n23)n(C)c1=O"
category = "T"

[[record]]
molecule = "O=NN(CCCl)C(=O)N[C@H]1CCCC[C@@H]1Cl"
category = "T"

[[record]]
molecule = "c1ccc2c3c(ccc2c1)-c1c(ccc2c(NCCCCN4CCCCC4)cccc12)C3"
category = "F"

[[record]]
molecule = "CCCN1C(=O)CNC(=O)c2[nH]cnc21"
category = "T"

[[record]]
molecule = "COc1ccc(C2C3=C(COC3=O)Oc3cc4c(cc32)OCO4)cc1 (centres undefined)"
category = "T"

[[record]]
molecule = "O=c1[nH]c2cc([N+](=O)[O-])ccc2nc1/C=C(\\O)c1ccc(Cl)cc1"
category = "F"

[[record]]
molecule = "Cc1c(CC/C(=N\\Nc2ccc([N+](=O)[O-])cc2[N+](=O)[O-])c2ccccc2)c2ccccc2n1C"
category = "T"

[[record]]
molecule = "CC[CH2][Sn]([CH2]CC)([O]C(=O)Cc1ccc(F)cc1)[O][Sn]([CH2]CC)([CH2]CC)[O]C(=O)Cc1ccc(F)cc1"
category = "F"


---

Below is a list of entries, each paired with its recorded TGI value.
- System: RXF 393 renal
- MEASUREMENT PROTOCOL: NCI tumour cell line growth inhibition, 48 h
MEASUREMENT NAME: TGI

[[record]]
smiles_data = "CCOC(=O)c1ccc(N=c2oc3ccc(OC)cc3cc2-c2nc3ccccc3[nH]2)cc1"
measurement_name = "TGI"
observed_measurement = "> 100 µM"

[[record]]
smiles_data = "C[C@@H]1OCC2(CCN(c3cnc(Sc4ccnc(N)c4Cl)c(N)n3)CC2)[C@@H]1N"
measurement_name = "TGI"
observed_measurement = "> 67.6 µM"

[[record]]
smiles_data = "C[C@]12CCC(=O)C=C1CC[C@@H]1[C@@H]2[C@@H](O)C[C@@]2(C)[C@H]1CC[C@]2(O)C(=O)COC(=O)C1CCCC1"
measurement_name = "TGI"
observed_measurement = "> 100 µM"


---

- Tested on: KM12 colon
- MEASUREMENT PROTOCOL: NCI tumour cell line growth inhibition, 48 h
MEASUREMENT NAME: TGI

[[record]]
compound = "Cc1ccc(C2SCC(=O)N2NC(=O)c2ccncc2)s1 (stereo unspecified)"
measurement_name = "TGI"
observed_measurement = "> 100 µM"

[[record]]
compound = "O=C(O)C1=NN(c2ccc(S(=O)(=O)O)cc2)C2(C1)SCC(=O)N2c1nc2ccccc2s1 (stereo unspecified)"
measurement_name = "TGI"
observed_measurement = "> 100 µM"

[[record]]
compound = "O=C(NNC(=O)c1nsc2ccccc12)c1ccc(Cl)cc1"
measurement_name = "TGI"
observed_measurement = "65.7 µM"

[[record]]
compound = "C=C1C(=O)O[C@H]2[C@H]1CC/C(COC(=O)NCc1cc(OC)cc(OC)c1)=C\\CC[C@@]1(C)O[C@@H]21"
measurement_name = "TGI"
observed_measurement = "11 µM"

[[record]]
compound = "CCOC(=O)c1cc(Br)c(-c2onc(C)c2Br)n1C"
measurement_name = "TGI"
observed_measurement = "69.5 µM"

[[record]]
compound = "C[C@]12CCC(=O)C=C1CC[C@@H]1[C@@H]2[C@@H](O)C[C@@]2(C)[C@H]1CC[C@]2(O)C(=O)COC(=O)C1CCCC1"
measurement_name = "TGI"
observed_measurement = "> 100 µM"

[[record]]
compound = "COCN1C(=O)[C@@H]2CCCN2C(=O)c2ccc([N+](=O)[O-])cc21"
measurement_name = "TGI"
observed_measurement = "> 100 µM"

[[record]]
compound = "COc1cc2c(cc1OC)-c1cc3ccc(OC)c(OC)c3c[n+]1CC2"
measurement_name = "TGI"
observed_measurement = "> 100 µM"

[[record]]
compound = "c1cc(NC2=NCCO2)c2c(c1)OCO2"
measurement_name = "TGI"
observed_measurement = "> 100 µM"

[[record]]
compound = "O=C(/C=C/c1ccc2c(c1)OCO2)CC(=O)/C=C/c1ccc2c(c1)OCO2"
measurement_name = "TGI"
observed_measurement = "10.8 µM"

[[record]]
compound = "CSC1(CC(=O)N2CCCCC2)C(=O)Nc2ccccc21 (stereo unspecified)"
measurement_name = "TGI"
observed_measurement = "> 100 µM"

[[record]]
compound = "c1ccc2c(c1)[nH]c1c2ncc2[nH]c3ccccc3c21"
measurement_name = "TGI"
observed_measurement = "10.3 µM"

[[record]]
compound = "O=C(N/N=C(\\c1nc2ccc(Cl)cc2[nH]c1=O)C(O)c1ccccc1Cl)c1ccncc1 (stereo unspecified)"
measurement_name = "TGI"
observed_measurement = "> 100 µM"

[[record]]
compound = "O=NN(CCCl)C(=O)N[C@H]1CCCC[C@@H]1Cl"
measurement_name = "TGI"
observed_measurement = "> 100 µM"

[[record]]
compound = "O=C(O)[C@@H](NS(=O)(=O)c1ccc([N+](=O)[O-])cc1)c1ccccc1"
measurement_name = "TGI"
observed_measurement = "> 100 µM"

[[record]]
compound = "FC(F)(F)c1nc(-c2ccccc2)oc1Sc1oc(-c2ccccc2)nc1C(F)(F)F"
measurement_name = "TGI"
observed_measurement = "> 100 µM"


---

- System: HCC-2998 colon
- MEASUREMENT PROTOCOL: NCI tumour cell line growth inhibition, 48 h
MEASUREMENT NAME: TGI (µM)

[[record]]
compound = "C[N+](C)(CCO)CCN1c2ccccc2Sc2ccccc21"
qualifier_symbol = ">"
observed_measurement = 10

[[record]]
compound = "O=C(O)c1ccccc1Nc1ccc2nnc(-c3ccncc3)n2n1"
qualifier_symbol = "="
observed_measurement = 52

[[record]]
compound = "O=[N+]([O-])c1ccc(C(=Nc2ccccc2)SSC(=Nc2ccccc2)c2ccc([N+](=O)[O-])o2)o1"
qualifier_symbol = "="
observed_measurement = 3.41

[[record]]
compound = "Oc1cccc2c1[nH]c1c(C3=C[C@@]4(O)CC/C=C\\CCCCN5CC[C@@H]3[C@]3(CC6/C=C\\CCCCN6[C@H]34)C5)nccc12 (stereo partly drawn)"
qualifier_symbol = "="
observed_measurement = 1.87

[[record]]
compound = "COc1cc2c3c(n(CCCN4CCCC(O)C4)c(=O)c2cc1OC)-c1cc2c(cc1C3=O)OCO2 (stereo not drawn)"
qualifier_symbol = "="
observed_measurement = 1.05

[[record]]
compound = "CCOC(=O)c1cc2cc(C)cc(C(=O)c3ccc([N+](=O)[O-])cc3)c2[nH]1"
qualifier_symbol = ">"
observed_measurement = 100

[[record]]
compound = "O=C(c1ccccc1)C1C[C@H]2CO[C@H](c3ccccc3)N2C1=O (stereo partly drawn)"
qualifier_symbol = ">"
observed_measurement = 100

[[record]]
compound = "COC(=O)c1ccccc1C1CN=NC12Cc1cc(C)cc(C)c1C2=O (stereo not drawn)"
qualifier_symbol = ">"
observed_measurement = 100

